TGI values by entry
# Test system: MDA-MB-435
# experimental protocol: NCI tumour cell line growth inhibition, 48 h

compound: CCOC(=O)c1nc2ccccc2nc1Nc1cc(OC)c(OC)c(OC)c1
unit annotation: µM
reading qualifier: >
TGI: 100

compound: C=C1C(=O)O[C@@H]2C[C@@]3(C)CCC[C@H](C)C3=C[C@H]12 (tested in a mixture with another compound)
unit annotation: µM
reading qualifier: =
TGI: 3.72

compound: CC(C)(C)c1ccc(O)c(C(O)c2ccccn2)c1 (centres undefined)
unit annotation: µM
reading qualifier: >
TGI: 100

compound: CCOc1cc(/C=C/C(=O)CC(=O)/C=C/c2ccc(OC(=O)CNc3nc4ccc(OC)cc4s3)c(OCC)c2)ccc1OC(=O)CNc1nc2ccc(OC)cc2s1
unit annotation: µM
reading qualifier: =
TGI: 8.3

compound: CCN1CC2=C(OC(N)=C(C#N)C2c2ccc(Cl)cc2)/C(=C/c2ccc(Cl)cc2)C1 (centres undefined)
unit annotation: µM
reading qualifier: >
TGI: 100

compound: O=c1cc(-c2cccc(Cl)c2)[nH]c2cc3c(cc12)OCO3
unit annotation: µM
reading qualifier: =
TGI: 0.193

compound: Nc1nc(N)c2cc(S(=O)(=O)c3cccc(C(F)(F)F)c3)ccc2n1
unit annotation: µM
reading qualifier: >
TGI: 100

compound: Clc1cccc(-c2cc(-c3ccc4c(c3)OCCO4)[nH]n2)c1
unit annotation: µM
reading qualifier: =
TGI: 26.1

compound: COC(=O)c1sc2nc(Nc3ccccc3)c(=Nc3ccccc3)sc2c1C
unit annotation: µM
reading qualifier: >
TGI: 100

###

# System: SK-MEL-5 melanoma
# experimental protocol: NCI tumour cell line growth inhibition, 48 h

compound: CN(C)N1C(=C(C#N)C#N)C(c2ccccc2)CC1C#N (stereo unspecified)
TGI: > 100 µM
--
compound: O=C1/C(=C/c2cc(O)c(O)c(O)c2)Oc2cc(O)cc(OC3OC(CO)C(O)C(O)C3O)c21 (stereo unspecified)
TGI: 31 µM
--
compound: CCN(CC)c1c(-c2c(OC(C)C)c(=O)c2=O)c(=O)n2ccsc2c1OC(C)=O
TGI: > 100 µM
--
compound: CCOC(=O)CCCN
TGI: > 100 µM
--
compound: O=NN(CC1(O)OCC(O)C(O)C1O)C(Cc1c[nH]c2ccccc12)C(=O)O (stereo unspecified)
TGI: > 100 µM
--
compound: CCCCCCc1cc2cc(C(=O)Nc3nc(C45CC6CC(CC(C6)C4)C5)cs3)c(=O)oc2cc1O
TGI: 24.7 µM
--
compound: CN1CCN(c2cc(F)c(NC3=C(Cl)C(=O)c4ncccc4C3=O)c(F)c2)CC1
TGI: 3.13 µM
--
compound: CC(C)NC1CCCCC2c3ccccc3C12O (stereo unspecified)
TGI: > 100 µM
--
compound: CCCCOc1ccc(/C=C/C2=[N+](CCO)CCO2)cc1
TGI: > 100 µM
--
compound: COC1CCC(O)C(CO)O1 (stereo unspecified)
TGI: > 100 µM
--
compound: O=C1C(NS(=O)(=O)c2ccccc2)=C(n2ccnc2)C(=O)c2ccccc21
TGI: > 100 µM

###

# Test system: HOP-62 NSCLC
# experimental protocol: NCI tumour cell line growth inhibition, 48 h

compound: [Cu].c1ccc2c(c1)C1=NC2=NC2=NC(=NC3=NC(=NC4=NC(=N1)c1ccccc14)c1ccccc13)c1ccccc12
GI50: > 100 µM
//
compound: [O-]c1ccccc1C=NCCN=Cc1ccccc1[O-].[O]=[U+2]=[O]
GI50: > 43.3 µM
//
compound: Cc1cc2c(cc1Cl)SC(=Nc1ccc(Cl)cc1)N(S(=O)(=O)c1ccc(Br)s1)S2(=O)=O
GI50: 17.8 µM
//
compound: C=CCn1c(SCC(=O)Nc2ccc(C(=O)/C=C/c3cc(OC)c(OC)c(OC)c3)cc2)nnc1-c1cc(OC)c(OC)c(OC)c1
GI50: 5.17 µM

###

# Tested on: HT29 colon
# experimental protocol: NCI tumour cell line growth inhibition, 48 h
Param threshold (20 µM) applies to TGI; output y when value >= threshold, n when value < threshold.

compound: COc1cc2ncnc(Nc3cccc(Br)c3)c2cc1OC
class label: n
//
compound: Clc1ccc2c(NCCCCNc3nc(N4CCOCC4)nc4ccccc34)ccnc2c1
class label: n
//
compound: CCOc1ccc2c(c1)[n+]([O-])c(-c1ccccc1)c(N)[n+]2[O-]
class label: y
//
compound: C=CC(=O)N1CCN([C@@H](CC2CC2)c2ccc([C@H](C)Nc3ncc4c(n3)N(CC)C(=O)OC4)cc2)CC1
class label: y
//
compound: Cc1ccc(/C=C/C(=O)c2ccc(F)cc2)s1
class label: n
//
compound: COC(=O)c1sc2nc(Nc3ccccc3)c(=Nc3ccccc3)sc2c1C
class label: y
//
compound: Clc1ccc(NCNC2Nc3ccccc3N2)cc1Cl
class label: y
//
compound: Cc1ccc(N=NC(=Nc2ccc(F)cc2)c2ccc(N(CCC#N)CCC#N)cc2)cc1
class label: y
//
compound: CCOC(=O)N1CCC2(CC1)C[C@](Sc1ccccc1)(C(C)=O)[C@H](C)O2
class label: y

###

# Test system: RXF 393 renal
# experimental protocol: NCI tumour cell line growth inhibition, 48 h
Where a SMILES comes first, the peptide text is derived from it. [ ]: non-standard residue; d: D form. ξ: configuration not given here. Pentanoyl(2-O,4-OH,5-Cl) = O=C(O)C(O)CC(O)CCl; Ile(3ξ) = CCC(C)[C@H](N)C(=O)O; NMeV = CN[C@H](C(=O)O)C(C)C; NMeA = CN[C@@H](C)C(=O)O; βAla = NCCC(=O)O

molecule: CC(C)(C)OC(=O)C1C(=O)NC(=O)CC1C(OCc1ccccc1)C(OCc1ccccc1)C(COCc1ccccc1)OCc1ccccc1 (stereo unspecified)
TGI: > 100 µM

molecule: [Cu].c1ccc2c(c1)C1=NC2=NC2=NC(=NC3=NC(=NC4=NC(=N1)c1ccccc14)c1ccccc13)c1ccccc12
TGI: > 100 µM

molecule: O=C(Nc1ccc(Cl)cc1)c1cc(S(=O)(=O)Nc2nc3ncccc3[nH]2)c(SSc2cc(Cl)c(C(=O)Nc3ccc(Cl)cc3)cc2S(=O)(=O)Nc2nc3ncccc3[nH]2)cc1Cl
TGI: > 100 µM

molecule: Cn1c2ccccc2n2c(=O)c(-c3ccc(Cl)cc3)nnc12
TGI: > 100 µM

molecule: Cc1ccc2[nH]c3c(c2c1)C1CCC(C(C)(C)C)CC1C1C(=O)N(c2ccc(Oc4ccccc4)cc2)C(=O)C31 (stereo unspecified)
TGI: 29.1 µM

molecule: Cc1c2ccccc2c(=O)n2c(-c3ccccn3)cccc12
TGI: > 100 µM

molecule: [O-]c1ccccc1C=NCCN=Cc1ccccc1[O-].[O]=[U+2]=[O]
TGI: 48.5 µM

molecule: O=C1O/C(=C(\Br)c2ccc([N+](=O)[O-])cc2)c2ccccc21
TGI: > 100 µM

molecule: Clc1ccc(NCNC2Nc3ccccc3N2)cc1Cl
TGI: > 100 µM

molecule: O=[N+]([O-])C1=Cc2c(O)ccc(O)c2C2OC=CC12 (stereo unspecified)
TGI: 29.4 µM

molecule: CC(C)CC(NC(=O)C(O)C(N)Cc1ccccc1)C(=O)O (stereo unspecified)
TGI: > 100 µM

molecule: OC1CCN2Cc3ccccc3N=C12 (stereo unspecified)
TGI: > 100 µM

molecule: CCOC(=O)c1sc2nc(=S)[nH]c(NC(N)=S)c2c1C
TGI: 47.2 µM

molecule: Cc1cccc(C)c1NC(=S)N/C=C(\C#N)C(N)=O
TGI: > 100 µM

molecule: COc1cc(O)c2c(=O)c3cccc(C)c3[nH]c2c1
TGI: > 10 µM

molecule: C/C(=N/NC(=S)N1CCCCCC1)c1cccc(/C(C)=N\NC(=S)N2CCCCCC2)n1
TGI: 3.69 µM

molecule: C/C(=C1\C(=O)Nc2ccccc21)c1cccc(/C(C)=C2/C(=O)Nc3ccccc32)n1
TGI: 58.7 µM

molecule: CC(=O)Nc1ccc(CC[C@H]2CCC/C=C/[C@@H]3C[C@H](O)C[C@H]3[C@H](O)/C=C/C(=O)O2)cc1
TGI: 0.15 µM

molecule: Cc1cc(NC(=O)NCCCOc2ccc(N3C(N)=NC(N)=NC3(C)C)cc2Cl)ccc1S(=O)(=O)F
TGI: > 100 µM

molecule: CCCCCOC(=O)c1c(C)[nH]c(/C=C2\N=C(c3ccc[nH]3)C=C2OC)c1C
TGI: 0.9 µM

molecule: COP(=O)(OC)[C@@](O)(c1ccccc1)[C@@H](O)[C@H](O)c1ccccc1
TGI: > 100 µM

molecule: COc1cc2ncnc(Nc3cccc(Br)c3)c2cc1OC
TGI: 53 µM

molecule: [N-]=[N+]=NC1C(Cl)C(=O)NC(=O)N1[C@H]1C[C@H](O)[C@@H](CO)O1 (stereo partly specified)
TGI: > 100 µM

molecule: CCCCCCCCCCCCCOCCOCCOCCCCC(O)CCCCCCCCCC1=C[C@H](C)OC1=O (stereo partly specified)
TGI: 47.5 µM

molecule: OC1C2CN3CCN(C2)CC1(c1ccccc1)C3 (stereo unspecified)
TGI: > 100 µM

molecule: O=C(O)CN(CCN(CC(=O)O)CC(=O)O)CCN(CC(=O)O)CC(=O)O
TGI: 4.85 µM

molecule: COc1cc(OC)c(OC)cc1/C=C/c1ccccn1
TGI: > 10 µM

molecule: Cc1cc[c]([Sb]2[O]C(CO)C(C(O)C(O)C(=O)O)[O]2)cc1 (stereo unspecified)
TGI: 84.7 µM

molecule: N#C/C=C(/NC(=O)Nc1ccccc1)N1CCCC1
TGI: > 100 µM

molecule: O=C(O)CSC1=NCCN1
TGI: > 100 µM

molecule: O=c1c(-c2cccc3ccccc23)c(-c2cccc3ccccc23)c1=O
TGI: 45.7 µM

molecule: COc1ccc2c(c1)c(-c1ccc(-c3cn(C)c4ccc(OC)cc34)s1)cn2C
TGI: > 100 µM

molecule: CC(NC(=O)c1ccc(Cl)c(Cl)c1)c1ccc(-c2ccccc2)cc1 (stereo unspecified)
TGI: 28 µM

molecule: COC(=O)/C(=C(/C)c1ccco1)P(=O)(OC)OC
TGI: > 100 µM

molecule: CCC(C)[C@@H]1NC(=O)[C@@H]2CCCN2C(=O)C(CC(O)CCl)OC(=O)CCNC(=O)[C@H](C)N(C)C(=O)[C@H](C(C)C)N(C)C1=O (stereo partly specified) (cyclo([Ile(3ξ)][NMeV][NMeA][βAla][Pentanoyl(2-O,4-OH,5-Cl)]P))
TGI: > 100 µM

molecule: CN(c1ccccc1)c1nc(=[N+](C)C)ss1
TGI: > 100 µM

molecule: O=C(O)C1CCCN1 (stereo unspecified)
TGI: > 100 µM

molecule: CN1CCN(CCCOC(=O)c2c3c(n4ccccc24)C(=O)c2ncccc2C3=O)CC1
TGI: 0.0303 µM

molecule: Cc1ccc(/C=C/C(=O)c2ccc(F)cc2)s1
TGI: 4.04 µM

molecule: CCN(CC)C(=O)c1cccc2c(OC)ccc(OC)c12
TGI: > 100 µM

molecule: O=c1c2ccccc2c(=O)n2n1-c1cccc(c1)CSSCc1cccc-2c1
TGI: > 100 µM
